Recorded values, source patent US8952150B2.

Here the recorded Inh (% of Ctl) 1 μM is given for each entry.
SUBJECT OF TEST: rat PGT (Rattus norvegicus (Rat))
EXPERIMENTAL PROTOCOL: [3H]PGE2 uptake inhibition in MDCK cells stably transfected with rat PGT (percent inhibition and IC50)
Assay type: cell-based
CONDITION CONTEXT: 1 μM compound; inhibition of [3H]PGE2 uptake

{"COMPOUND": "O=C(NCc1ccc(F)cc1)c1ccc(Nc2nc(Nc3ccc(O)cc3)nc(Nc3ccc(O)cc3)n2)cc1 [compound 145]", "Inh (% of Ctl) 1 μM": "6.9 % of Ctl"}
{"COMPOUND": "O=C(O)c1ccc(Nc2nc(NCCOCCOCCNC(=O)c3ccccc3)nc(Nc3ccccc3)n2)cc1 [compound 58]", "Inh (% of Ctl) 1 μM": "16.25 % of Ctl"}
{"COMPOUND": "O=C(O)CCCCCCNc1nc(Nc2ccccc2)nc(Nc2ccc(O)cc2)n1 [compound 52]", "Inh (% of Ctl) 1 μM": "0.1 % of Ctl"}
{"COMPOUND": "O=C(NCCOCCNc1nc(Nc2ccc(O)cc2)nc(Nc2ccc(C(=O)NCc3ccc(F)cc3)cc2)n1)c1ccccc1 [compound 147]", "Inh (% of Ctl) 1 μM": "79.5 % of Ctl"}
{"COMPOUND": "O=C(NCCOCCOCCNc1nc(Nc2ccc(C(=O)NCc3ccc(F)cc3)cc2)nc(Nc2ccc(O)c(C(=O)O)c2)n1)c1ccccc1 [compound 146]", "Inh (% of Ctl) 1 μM": "70.4 % of Ctl"}
{"COMPOUND": "O=C(NCCOCCOCCNc1nc(Nc2ccccc2)nc(Nc2ccc3cn[nH]c3c2)n1)c1ccccc1 [compound 53]", "Inh (% of Ctl) 1 μM": "65.2 % of Ctl"}
{"COMPOUND": "COc1ccc(C(=O)NCCOCCNc2nc(Nc3ccc(O)cc3)nc(Nc3ccc(C(=O)NCc4ccccc4)cc3)n2)cc1 [compound 137]", "Inh (% of Ctl) 1 μM": "75.6 % of Ctl"}
{"COMPOUND": "O=C(NCCOCCOCCNc1nc(Nc2ccccc2)nc(Nc2ccc(O)c(Cl)c2)n1)c1ccccc1 [compound 56]", "Inh (% of Ctl) 1 μM": "38.0 % of Ctl"}
{"COMPOUND": "COC(=O)CCCCCCNc1nc(Nc2ccccc2)nc(Nc2ccc(O)cc2)n1 [compound 50]", "Inh (% of Ctl) 1 μM": "9.3 % of Ctl"}
{"COMPOUND": "O=C(NCCOCCOCCNc1nc(Nc2ccccc2)nc(Nc2ccc(O)cc2)n1)c1ccc(Br)cc1 [compound 31]", "Inh (% of Ctl) 1 μM": "12.2 % of Ctl"}
{"COMPOUND": "O=C(NCCOCCOCCNc1nc(Nc2ccc(C(=O)NCc3ccc(F)cc3)cc2)nc(Nc2ccc(O)c(F)c2)n1)c1ccccc1 [compound 143]", "Inh (% of Ctl) 1 μM": "69.5 % of Ctl"}
{"COMPOUND": "O=C(NCCCCCNc1nc(Nc2ccccc2)nc(Nc2ccc(O)cc2)n1)c1ccccc1 [compound 85]", "Inh (% of Ctl) 1 μM": "7.6 % of Ctl"}
{"COMPOUND": "O=C(NCCOCCOCCNc1nc(Nc2ccccc2)nc(Nc2ccc3cn[nH]c3c2)n1)c1ccccc1 [compound 75]", "Inh (% of Ctl) 1 μM": "8.4 % of Ctl"}
{"COMPOUND": "COc1cccc(C(=O)NCCOCCOCCNc2nc(Nc3ccccc3)nc(Nc3ccc(O)cc3)n2)c1 [compound 37]", "Inh (% of Ctl) 1 μM": "32.4 % of Ctl"}
{"COMPOUND": "O=C(NCCOCCNc1nc(Nc2ccc(O)cc2)nc(Nc2ccc(C(=O)NCc3ccccc3)cc2)n1)c1ccncc1 [compound 135]", "Inh (% of Ctl) 1 μM": "49.6 % of Ctl"}
{"COMPOUND": "O=C(O)CCCCCCNC(=O)c1ccc(Nc2nc(NCCOCCOCCNC(=O)c3ccccc3)nc(Nc3ccc(O)cc3)n2)cc1 [compound 48]", "Inh (% of Ctl) 1 μM": "14.2 % of Ctl"}
{"COMPOUND": "O=C(NCCOCCOCCNc1nc(Nc2ccccc2)nc(Nc2ccc(O)cc2)n1)c1ccncc1 [compound 29]", "Inh (% of Ctl) 1 μM": "15.9 % of Ctl"}
{"COMPOUND": "O=C(NCc1ccccc1)c1ccc(Nc2nc(NCCOCCNS(=O)(=O)c3ccccc3)nc(Nc3ccc(O)cc3)n2)cc1 [compound 138]", "Inh (% of Ctl) 1 μM": "34.5 % of Ctl"}
{"COMPOUND": "O=C(NCc1ccccc1)c1ccc(Nc2nc(NCCOCCNCc3ccccc3)nc(Nc3ccc(O)cc3)n2)cc1 [compound 141]", "Inh (% of Ctl) 1 μM": "43.5 % of Ctl"}
{"COMPOUND": "O=C(NCc1ccc(F)cc1)c1ccc(Nc2nc(Nc3ccc(O)cc3)nc(Nc3ccc(C(=O)NCc4ccc(F)cc4)cc3)n2)cc1 [compound 148]", "Inh (% of Ctl) 1 μM": "20.7 % of Ctl"}
{"COMPOUND": "O=S(=O)(NCCOCCOCCNc1nc(Nc2ccccc2)nc(Nc2ccc(O)cc2)n1)c1ccccc1 [compound 38]", "Inh (% of Ctl) 1 μM": "22.8 % of Ctl"}
{"COMPOUND": "O=C(NCCOCCOCCNc1nc(Nc2ccc(O)cc2)nc(Nc2ccc(C(=O)NCc3ccc(F)cc3F)cc2)n1)c1ccccc1 [compound 131]", "Inh (% of Ctl) 1 μM": "74.3 % of Ctl"}
{"COMPOUND": "NS(=O)(=O)c1ccc(Nc2nc(NCCOCCOCCNC(=O)c3ccccc3)nc(Nc3ccc(O)cc3)n2)cc1 [compound 46]", "Inh (% of Ctl) 1 μM": "4.1 % of Ctl"}
{"COMPOUND": "O=C(NCc1ccccc1)c1ccc(Nc2nc(NCCOCCNC(=O)c3ccccc3C(F)(F)F)nc(Nc3ccc(O)cc3)n2)cc1 [compound 134]", "Inh (% of Ctl) 1 μM": "46.7 % of Ctl"}
{"COMPOUND": "O=C(NCCOCCOCCNc1nc(Nc2ccccc2)nc(Nc2ccc(O)cc2)n1)c1cccc(Br)c1 [compound 36]", "Inh (% of Ctl) 1 μM": "30.3 % of Ctl"}
{"COMPOUND": "O=C(NCCOCCOCCNc1nc(Nc2ccccc2)nc(Nc2ccc(O)cc2)n1)c1cccc(F)c1 [compound 34]", "Inh (% of Ctl) 1 μM": "25.8 % of Ctl"}
{"COMPOUND": "O=C(CCCCCCNc1nc(Nc2ccccc2)nc(Nc2ccc(O)cc2)n1)NCc1ccccc1 [compound 97]", "Inh (% of Ctl) 1 μM": "13.1 % of Ctl"}
{"COMPOUND": "O=C(NCCOCCNc1nc(Nc2ccc(O)cc2)nc(Nc2ccc(C(=O)NCc3ccccc3)cc2)n1)Nc1ccccc1 [compound 139]", "Inh (% of Ctl) 1 μM": "39.0 % of Ctl"}
{"COMPOUND": "O=C(NCCOCCOCCNc1nc(Nc2ccccc2)nc(Nc2ccc(O)cc2)n1)Nc1ccccc1 [compound 42]", "Inh (% of Ctl) 1 μM": "22.8 % of Ctl"}

###

SUBJECT OF TEST: rat PGT (Rattus norvegicus (Rat), UniProt Q00910)
EXPERIMENTAL PROTOCOL: [3H]PGE2 uptake inhibition in MDCK cells stably transfected with rat PGT (percent inhibition and IC50)
Format: cell-based
CONDITION CONTEXT: 0.5 μM compound; inhibition of [3H]PGE2 uptake
Here the recorded Inh (% of Ctl) 0.5 μM is given for each entry.

{"COMPOUND": "COc1ccc(Nc2nc(NCCOCCOCCNC(=O)c3ccccc3)nc(Nc3ccccc3)n2)cc1 [compound 1]", "Inh (% of Ctl) 0.5 μM": "9.6 % of Ctl"}
{"COMPOUND": "CN(c1ccc(O)cc1)c1nc(NCCOCCOCCNC(=O)c2ccccc2)nc(Nc2ccc(C(=O)NCc3ccccc3)cc2)n1 [compound 123]", "Inh (% of Ctl) 0.5 μM": "36.6 % of Ctl"}
{"COMPOUND": "O=C(NCCO)c1ccc(Nc2nc(NCCOCCOCCNC(=O)c3ccccc3)nc(Nc3ccc(O)cc3)n2)cc1 [compound 21]", "Inh (% of Ctl) 0.5 μM": "15.7 % of Ctl"}
{"COMPOUND": "O=C(NCCOCCOCCNc1nc(Cl)nc(Nc2ccc(OCc3ccccc3)cc2)n1)c1ccccc1 [compound 3]", "Inh (% of Ctl) 0.5 μM": "0.4 % of Ctl"}
{"COMPOUND": "O=C(NCCOCCOCCNc1nc(Nc2ccc(O)cc2)nc(Nc2ccc(C(=O)NCc3cccc(Cl)c3)cc2)n1)c1ccccc1 [compound 87]", "Inh (% of Ctl) 0.5 μM": "71.8 % of Ctl"}
{"COMPOUND": "O=C(NCCOCCOCCNc1nc(Nc2ccc(O)cc2)nc(Nc2ccc(C(=O)NCc3ccc(Cl)c(Cl)c3)cc2)n1)c1ccccc1 [compound 104]", "Inh (% of Ctl) 0.5 μM": "61.6 % of Ctl"}
{"COMPOUND": "O=C(O)Cc1ccc(Nc2nc(NCCOCCOCCNC(=O)c3ccccc3)nc(Nc3ccc(C(=O)NCc4ccccc4)cc3)n2)cc1 [compound 125]", "Inh (% of Ctl) 0.5 μM": "24.3 % of Ctl"}
